Target: UniProt P56817
Sequence (P56817 46-501, species assumed): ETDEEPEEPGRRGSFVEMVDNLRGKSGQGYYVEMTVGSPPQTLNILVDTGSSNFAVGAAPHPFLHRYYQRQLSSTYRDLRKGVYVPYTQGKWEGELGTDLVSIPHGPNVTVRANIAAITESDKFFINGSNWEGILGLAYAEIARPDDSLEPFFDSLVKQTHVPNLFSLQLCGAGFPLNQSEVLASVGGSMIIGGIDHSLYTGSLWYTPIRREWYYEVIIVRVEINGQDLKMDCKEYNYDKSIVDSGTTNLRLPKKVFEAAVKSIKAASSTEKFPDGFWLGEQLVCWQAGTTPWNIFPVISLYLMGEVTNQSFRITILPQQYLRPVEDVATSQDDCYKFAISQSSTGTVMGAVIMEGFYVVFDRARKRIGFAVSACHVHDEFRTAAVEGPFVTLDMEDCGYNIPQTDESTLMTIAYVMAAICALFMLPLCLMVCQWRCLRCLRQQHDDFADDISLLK
Assay: In Vitro Enzymatic BACE FRET (Fluorescence Resonance Energy Transfer) Assay
Format: biochemical
Details: read-out: BACE1 FRET assay
Please go through the items and note down their IC50.

>>> recorded_measurement("CC(C)(C)COc1ccc2c(c1)[C@@]1(COC(N)=N1)c1cc(C#N)ccc1O2")
"100 to 1000 nM"
>>> recorded_measurement("NC1=N[C@@]2(CO1)c1cc(Br)ccc1Oc1ccc(C#CC3(O)CCC3)cc12")
"1000 to 5000 nM"
>>> recorded_measurement("NC1=N[C@@]2(CO1)c1cc(-c3cccnc3)ccc1Oc1ccc(C3CC3)cc12")
"< 100 nM"
>>> recorded_measurement("CCc1cc2c3c(ccc2o1)Oc1ncc(-c2cncnc2)cc1[C@]31COC(N)=N1")
"100 to 1000 nM"
>>> recorded_measurement("CC(C)NC(=O)c1ccc2c(c1)[C@@]1(COC(N)=N1)c1cc(OCC(C)(C)C)ccc1O2")
"< 100 nM"
>>> recorded_measurement("NC1=N[C@@]2(CO1)c1cc(-c3cc(C4=CCOCC4)ccc3F)ccc1Oc1cnc(C3=CCOCC3)cc12")
"< 100 nM"

Record IC50 for all entries; do not skip any.
1. NC1=N[C@]2(CO1)c1cc(-c3cccc(F)c3)ccc1Oc1ncc(C3=CCOCC3)cc12
2. CC(C)(C)C#Cc1ccc2c(c1)[C@@]1(COC(N)=N1)c1cc(C#CC(C)(C)C)cnc1O2
3. COCC[C@@H]1CN(c2ccc3c(c2)[C@]2(COC(N)=N2)c2cc(-c4cccnc4)ccc2O3)CCO1
4. NC1=N[C@@]2(CO1)c1cc(-c3cncnc3)ccc1Oc1ccc([C@@H]3CCOC3)cc12

## Output
1: 1000 to 5000 nM; 2: < 100 nM; 3: 100 to 1000 nM; 4: < 100 nM

Hi team, please reply with IC50 for each item in this list.
1. NC1=N[C@]2(CO1)c1cc(OCC3CCOCC3)ccc1Oc1ccc(-c3cccnc3)cc12
2. NC1=N[C@]2(CO1)c1cc(-c3ccc(OC(F)F)cc3)ccc1Oc1ccc(-c3cncnc3)cc12
3. NC1=N[C@@]2(CO1)c1cc(-c3cccnc3)ccc1Oc1cnc(N3CCC3)cc12
4. CC(C)(C)COc1ccc2c(c1)[C@]1(COC(N)=N1)c1cc(-c3cnc4ccccn34)ccc1O2
5. CC(C)C#Cc1cnc2c(c1)[C@]1(COC(N)=N1)c1cc(-c3cncnc3)ccc1O2
6. CC(C)(C)COc1ccc2c(n1)[C@@]1(COC(N)=N1)c1cc(Br)ccc1O2 [compound 734]

## Output
["< 100 nM", "< 100 nM", "< 100 nM", "100 to 1000 nM", "< 100 nM", "> 5000 nM"]
